# pEC50 per record follows
# TESTED SYSTEM: human cannabinoid receptor type 2 (Homo sapiens)
# Construct: expressed in transfected cells; membrane preparation
# EXPERIMENT: Human CB2 Radioligand Binding Assay
# DETAILS: competition with [3H] CP-55,940; membranes from stably transfected CHO CB2 cells; read-out: CB2 Ligand Binding Asssay EC50
pEC50: −log10 of the molar value.

[
  {
    "COMPOUND": "COC(=O)c1ccc2nc(-c3ccccc3Cl)nc(Nc3cccc(OC(C)C)c3)c2c1 [Example 327]",
    "pEC50": "< 6.00"
  },
  {
    "COMPOUND": "CCOC(=O)N1CCN(c2nc(-c3ccccc3Cl)nc3cc(C(=O)O)ccc23)CC1 [Example 318]",
    "pEC50": "< 6.00"
  },
  {
    "COMPOUND": "CCOC(=O)N1CCN(c2nc(-c3ccc(Cl)cc3)nc3ccc(OC(F)(F)F)cc23)CC1 [Example 223]",
    "pEC50": "< 6.00"
  }
]

// sample Fc1ccc(-c2nc(N3CCCC3)c3ccccc3n2)c(F)c1 [Example 22] , its pEC50 was > 6.00

---

# TESTED SYSTEM: human cannabinoid receptor type 2 (Homo sapiens)
# Construct: expressed in transfected cells; membrane preparation
# EXPERIMENT: Human CB2 Radioligand Binding Assay
# DETAILS: competition with [3H] CP-55,940; membranes from stably transfected CHO CB2 cells; read-out: CB2 Ligand Binding Asssay EC50
# Protocol: 1. Human CB2 Radioligand Binding Assay This receptor binding filtration assay measures the receptor-ligand interactions of compounds by measuring ability to compete with a radiolabeled control ligand. […] Tritiated CP-55,940 (Perkin Elmer) was used at the Kd determined from prior saturation binding experiments conducted on each lot of membranes. […] Betaplate Scint Scintillation cocktail (25 ul, Perkin Elmer) was applied and plates were read using Microbeta Trilux (Wallac). […]
pEC50: −log10 of the molar value.
# pEC50 per record follows

[
  {
    "MOLECULE": "FC(F)(F)N1CCN(c2nc(-c3ccccc3Cl)nc3ccccc23)CC1 [Example 106]",
    "pEC50": "> 6.00"
  }
]

// sample CCOC(=O)N1CCN(c2nc(-c3ccccc3Cl)nc3ccc(C(C)(C)C)cc23)CC1 [Example 219] , its pEC50 was > 6.00

// sample Fc1ccccc1-c1nc(N2CCCC2)c2cc(Cl)ccc2n1 [Example 273] , its pEC50 was > 6.00

// sample c1ccc2c(N3CCOCC3)nc(C3CCCCC3)nc2c1 [Example 35] , its pEC50 was > 6.00

// sample CN(c1nc(-c2ccccc2Cl)nc2ccccc12)C1CCCCC1 [Example 63] , its pEC50 was > 6.00

---

# EC50 per record follows
# TESTED SYSTEM: human cannabinoid receptor type 2 (Homo sapiens)
# Construct: expressed in transfected cells; membrane preparation
# EXPERIMENT: Human CB2 Radioligand Binding Assay
# DETAILS: competition with [3H] CP-55,940; membranes from stably transfected CHO CB2 cells; read-out: CB2 Ligand Binding Asssay EC50

Example entries begin here.
[
  {
    "COMPOUND": "CCOC(=O)N1CCN(c2nc(-c3ccccc3Cl)nc3ccc([N+](=O)[O-])cc23)CC1 [Example 343]",
    "EC50": "> 1 µM"
  },
  {
    "COMPOUND": "Cc1ccccc1-c1nc(N2CCCCC2)c2ccccc2n1 [Example 187, 4-Piperidin-1-yl-2-o-tolylquinazoline]",
    "EC50": "> 1 µM"
  },
  {
    "COMPOUND": "CCOC(=O)N1CCN(c2nc(-c3ccc(Cl)cc3Cl)nc3ccccc23)CC1 [Example 203]",
    "EC50": "> 1 µM"
  }
]

// sample Clc1ccccc1-c1nc(N2CCCC2)c2cc(Br)ccc2n1 [Example 184] , its EC50 was < 1 µM

// sample O=S(=O)(NCc1nc(N2Cc3ccccc3C2)c2ccccc2n1)c1cccc2ccccc12 [Example 308] , its EC50 was < 1 µM

// sample O=C(C1CC1)N1CCN(c2nc(-c3ccccc3Cl)nc3ccccc23)CC1 [Example 97] , its EC50 was < 1 µM

// sample Cc1ccccc1Cc1nc(N2CCN(C)CC2)c2ccccc2n1 [Example 337] , its EC50 was < 1 µM

// sample CN1CCN(c2nc(-c3ccccc3Cl)nc3ccccc23)CC1 [Example 57] , its EC50 was < 1 µM

// sample Clc1ccccc1-c1nc(NCC23CC4CC(CC(C4)C2)C3)c2ccccc2n1 [Example 190] , its EC50 was > 1 µM

// sample O=C(NCc1nc(N2CCCC2)c2ccccc2n1)c1ccc(Cl)cc1 [Example 12] , its EC50 was > 1 µM

// sample CC(C)(C)c1ccc2c(N3CCCC3)nc(Nc3ccc(F)c(F)c3)nc2c1 [Example 289] , its EC50 was < 1 µM

// sample CC(=O)N1CCN(c2nc(-c3ccccc3Cl)nc3cc(Cl)ccc23)CC1 [Example 233] , its EC50 was < 1 µM

// sample CCN(CC)CCNC(=O)c1sccc1S(=O)(=O)NCc1nc(N2CCCC2)c2ccccc2n1 [Example 9] , its EC50 was > 1 µM

// sample CC(C)(C)NC(=O)N1CCN(c2nc(-c3ccccc3Cl)nc3ccccc23)CC1 [Example 89] , its EC50 was > 1 µM

// sample CN1CCN(c2nc(C3CCCCC3)nc3cc(Cl)ccc23)CC1 [Example 166] , its EC50 was < 1 µM

// sample c1ccc(CNc2nc(C3CCCCC3)nc3ccccc23)cc1 [Example 38, N-Benzyl-2-cyclohexylquinazolin-4-amine] , its EC50 was > 1 µM

// sample CCc1ccc2nc(-c3ccccc3Cl)nc(N3CCN(C)CC3)c2c1 [Example 173] , its EC50 was < 1 µM

---

# EC50 per record follows
# TESTED SYSTEM: human cannabinoid receptor type 2 (Homo sapiens)
# Construct: expressed in transfected cells; membrane preparation
# EXPERIMENT: Human CB2 Radioligand Binding Assay
# DETAILS: competition with [3H] CP-55,940; membranes from stably transfected CHO CB2 cells; read-out: CB2 Ligand Binding Asssay EC50

Example entries begin here.
[
  {
    "MOLECULE": "FC(F)(F)Oc1ccc2nc(-c3ccc(Cl)cc3)nc(N3CCCC3)c2c1 [Example 222]",
    "TESTED SYSTEM": "human cannabinoid receptor type 2 (Homo sapiens)",
    "EC50": "< 1000 nM"
  },
  {
    "MOLECULE": "CCOC(=O)N1CCN(c2nc(-c3ccccc3Cl)nc3cc(C(=O)OC)ccc23)CC1 [Example 317]",
    "TESTED SYSTEM": "human cannabinoid receptor type 2 (Homo sapiens)",
    "EC50": "> 1000 nM"
  },
  {
    "MOLECULE": "Cc1c(Cl)cccc1S(=O)(=O)NCc1nc(N2CCOCC2)c2ccccc2n1 [Example 295]",
    "TESTED SYSTEM": "human cannabinoid receptor type 2 (Homo sapiens)",
    "EC50": "> 1000 nM"
  }
]

Here's the next entry for you.
Entry CN(c1ccccc1Cl)c1nc(-c2ccc(C(C)(C)C)cc2)nc2ccccc12 [Example 134] , human cannabinoid receptor type 2 (Homo sapiens) data, EC50 value: < 1000 nM

---

# TESTED SYSTEM: human cannabinoid receptor type 2 (Homo sapiens, UniProt P34972)
# Construct: expressed in transfected cells; membrane preparation
# Sequence (P34972 whole entry): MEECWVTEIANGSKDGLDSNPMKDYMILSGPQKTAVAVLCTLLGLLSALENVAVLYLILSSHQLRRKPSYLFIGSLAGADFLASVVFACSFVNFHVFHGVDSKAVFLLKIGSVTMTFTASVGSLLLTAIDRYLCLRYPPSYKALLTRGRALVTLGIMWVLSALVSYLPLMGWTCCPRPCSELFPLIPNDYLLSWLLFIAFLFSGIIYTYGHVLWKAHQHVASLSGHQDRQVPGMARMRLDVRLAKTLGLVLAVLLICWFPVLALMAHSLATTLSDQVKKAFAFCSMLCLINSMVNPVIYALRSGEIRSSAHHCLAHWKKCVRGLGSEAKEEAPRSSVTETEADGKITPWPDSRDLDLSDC
# EXPERIMENT: Human CB2 Radioligand Binding Assay
# DETAILS: competition with [3H] CP-55,940; membranes from stably transfected CHO CB2 cells; read-out: CB2 Ligand Binding Asssay EC50
PARAMETER: EC50

[
  {
    "MOLECULE": "CC(=O)N1CCN(c2nc(C(C)c3ccccc3C)nc3ccccc23)CC1 (centres unmarked)",
    "DATA VALUE": "< 1000 nM"
  },
  {
    "MOLECULE": "CN(c1ccc(C(C)(C)C)cc1)c1nc(-c2ccc(F)c(F)c2)nc2ccccc12",
    "DATA VALUE": "> 1000 nM"
  }
]

// sample `CN(CC1CC1)c1nc(-c2ccc(C(C)(C)C)cc2)nc2ccccc12` , its EC50 was < 1000 nM

// sample `Clc1ccc(-c2nc(N3CCSCC3)c3cc(Cl)ccc3n2)cc1` , its EC50 was > 1000 nM

// sample `CCOC(=O)N1CCN(c2nc(-c3ccc(C(C)(C)C)cc3)nc3ccc(Cl)cc23)CC1` , its EC50 was > 1000 nM

---

# pEC50 per record follows
# TESTED SYSTEM: human cannabinoid receptor type 2 (Homo sapiens, UniProt P34972)
# Construct: expressed in transfected cells; membrane preparation
# EXPERIMENT: Human CB2 Radioligand Binding Assay
# DETAILS: competition with [3H] CP-55,940; membranes from stably transfected CHO CB2 cells; read-out: CB2 Ligand Binding Asssay EC50
pEC50: −log10 of the molar value.

Example entries begin here.
[
  {
    "MOLECULE": "CCOC(=O)N1CCN(c2nc(-c3ccccc3Cl)nc3cccc(OC)c23)CC1 [Example 244]",
    "pEC50": "> 6.00"
  },
  {
    "MOLECULE": "CN1CCN(c2nc(-c3ccccc3Cl)nc3ccccc23)C(=O)C1 [Example 74]",
    "pEC50": "< 6.00"
  },
  {
    "MOLECULE": "CC(=O)N1CCN(c2nc(-c3ccccc3F)nc3cccc(Cl)c23)CC1 [Example 237]",
    "pEC50": "> 6.00"
  },
  {
    "MOLECULE": "CN1CCN(c2nc(-c3ccc(F)c(F)c3)nc3ccccc23)CC1 [Example 18]",
    "pEC50": "> 6.00"
  },
  {
    "MOLECULE": "CN1CCN(c2nc(C3CCCC3)nc3ccccc23)CC1 [Example 138]",
    "pEC50": "> 6.00"
  }
]

Entry Clc1ccccc1-c1nc(N2CCSCC2)c2ccccc2n1 [Example 68] , human cannabinoid receptor type 2 (Homo sapiens, UniProt P34972) data, pEC50 value: > 6.00

Entry CCOC(=O)N1CCN(c2nc(C(C)c3ccccc3C)nc3ccccc23)CC1 (stereo not shown) [Example 338] , human cannabinoid receptor type 2 (Homo sapiens, UniProt P34972) data, pEC50 value: < 6.00

Entry CC(=O)N1CCN(c2nc(-c3ccccc3Cl)nc3cccc(C(F)(F)F)c23)CC1 [Example 240] , human cannabinoid receptor type 2 (Homo sapiens, UniProt P34972) data, pEC50 value: > 6.00

Entry O=C1CNCCN1c1nc(-c2ccccc2Cl)nc2ccccc12 [Example 71] , human cannabinoid receptor type 2 (Homo sapiens, UniProt P34972) data, pEC50 value: < 6.00
